Taken from patent US11357779B2.

protocol-description: Plasma concentration versus time of Compound I and metabolite Compound III in patients dosed QD or BID with Form B of Compound II plus fulvestrant
Assay type: in vivo, human
measurement-conditions: human, plasma, oral, 100 mg, 100 mg BID of Form B, Day 1, 6.0 h, Mean; read-out: Compound I Concentration
readout-name: concentration at 6 h (ng/mL)
Write the number in ng/mL without appending the unit.

[Q] Given the compound CC(C)N1CCN(c2ccc(Nc3ncc4cc5n(c4n3)C3(CCCCC3)CNC5=O)nc2)CC1 , what is its reported concentration at 6 h?
[A] 5.7

* * *

protocol-description: Noncompartmental pharmacokinetic parameters (Cmax, Tmax, AUC, Racc) in QD and BID cohorts of Form B
Assay type: in vivo, human
measurement-conditions: human, plasma, oral, 200 mg, Compound III; 200 mg BID of Form B; Cohort 8; Day 29; read-out: Cmax (Mean)
readout-name: Cmax (ng/mL)
The answer is to be given in ng/mL; state only the numeric part.

[Q] Requested field: Cmax. Item: O=C1NCC2(CCCCC2)n2c1cc1cnc(Nc3ccc(N4CCNCC4)cn3)nc12 [Compound III]
[A] 2.79

* * *

protocol-description: Plasma concentration versus time of Compound I and metabolite Compound III in patients dosed QD or BID with Form B of Compound II plus fulvestrant
Format: in vivo, human
measurement-conditions: human, plasma, oral, 100 mg, Cohort 6, 100 mg BID of Form B, Day 22; read-out: Trough Compound III Concentration, Min
Description: Patients were enrolled into 1 of 2 parallel, independently operating, dose-escalation dosing cohorts with Form B of Compound II administered continuously either once daily (QD) or twice daily (BID) with food with fixed-dose fulvestrant (intramuscularly every 14 days for the first three injections and then every 28 days). Pre- or perimenopausal patients also received goserelin for the duration of study treatment. […]
readout-name: concentration at 22 day (ng/mL)
Report only the number, with the unit ng/mL understood.

[Q] Sample O=C1NCC2(CCCCC2)n2c1cc1cnc(Nc3ccc(N4CCNCC4)cn3)nc12 — what was its concentration at 22 day?
[A] 0

* * *

protocol-description: Noncompartmental pharmacokinetic parameters (Cmax, Tmax, AUC, Racc) in QD and BID cohorts of Form B
Type: in vivo, human
measurement-conditions: human, plasma, oral, 400 mg, Compound III; 400 mg QD of Form B; Cohort 3; Day 1; read-out: Tmax (Mean)
Description: Analysis of plasma concentration versus time data for calculation of standard pharmacokinetic (PK) parameters following oral administration was conducted using Phoenix WinNonlin version 6.3 using actual blood sampling times. […]
readout-name: Tmax (h)
Answer with a number only, understood to be in h.

[Q] # query: Tmax of entry O=C1NCC2(CCCCC2)n2c1cc1cnc(Nc3ccc(N4CCNCC4)cn3)nc12 [Compound III]
[A] 4.33

* * *

protocol-description: Noncompartmental pharmacokinetic parameters (Cmax, Tmax, AUC, Racc) in QD and BID cohorts of Form B
Format: in vivo, human
measurement-conditions: human, plasma, oral, 650 mg, Compound I; 650 mg QD of Form B; Cohort 5; Day 29; read-out: Cmax (Median)
readout-name: Cmax (ng/mL)
Write the number in ng/mL without appending the unit.

[Q] Sample CC(C)N1CCN(c2ccc(Nc3ncc4cc5n(c4n3)C3(CCCCC3)CNC5=O)nc2)CC1 [Compound I] — what was its Cmax?
[A] 45

* * *

protocol-description: Steady-state AUC0-24,ss, (AUC0-24,ss)/dose, half-life and time to steady state: Compound I versus palbociclib, ribociclib, abemaciclib
Assay type: in vivo, human
measurement-conditions: human, in vivo; 150 mg QD; AUC0-24=(AUC0-10)*2.49655; read-out: Extrapolated AUC0-24,ss
readout-name: AUC(0-t) (ng·h/mL)
Field format: number, assumed ng·h/mL, no unit text.

[Q] Fill in: AUC(0-t) of CC(=O)c1c(C)c2cnc(Nc3ccc(N4CCNCC4)cn3)nc2n(C2CCCC2)c1=O [palbociclib] is ___
[A] 2710
